tested target: PD-1/PD-L1 (Homo sapiens)
Sequence (Q9NZQ7 19-238 limits assumed): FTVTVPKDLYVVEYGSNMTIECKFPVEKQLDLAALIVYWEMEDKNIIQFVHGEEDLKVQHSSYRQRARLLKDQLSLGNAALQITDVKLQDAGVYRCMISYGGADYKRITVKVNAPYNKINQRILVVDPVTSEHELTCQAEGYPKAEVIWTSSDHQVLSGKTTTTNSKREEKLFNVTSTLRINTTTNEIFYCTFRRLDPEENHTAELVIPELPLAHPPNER
procedure details: TR-FRET PD-1/PD-L1 binding inhibition at the molecular level (free proteins)
condition notes: Tag1-PD-L1 and Tag2-PD-1 proteins, twelve concentrations from 200 nM, 2 hours at room temperature, read-out: FRET assay (IC50)
pIC50: −log10 of the molar value.
Exercise: state measured pIC50 for each of the compounds provided.

Guide cases for pIC50, answers given:
Cc1c(NC(=O)c2cc3n(n2)CCCC3O)cccc1-c1cccc(Nc2nc(C(F)F)nc3cc(CN4CC[C@@H](O)C4)cnc23)c1C (stereo partly drawn) [Compound 129]
> 8.00
Cc1c(NC(=O)c2cc3n(n2)CCCC3=O)cccc1-c1cccc(NC(=O)c2cc3n(n2)CCCC3NCCO)c1C (stereo not drawn) [Compound 3]
> 8.00
Cn1c(C(=O)Nc2cccc(-c3cccc(NC(=O)c4cc5n(n4)CCCC5N4CCC(C(=O)O)CC4)c3Cl)c2Cl)nc2c1CCN(CCC13CCC(C(=O)O)(CC1)C3)C2 (stereo not drawn) [Compound 59]
> 8.00
O=C(Nc1cccc(-c2cccc(Nc3nccc4cc(CN5CC[C@H](O)C5)cnc34)c2Cl)c1Cl)c1cc2n(n1)CCC[C@@H]2N1CCC(C(=O)O)CC1 [Compound 226]
7.00 to 8.00
Cc1c(NC(=O)c2cc3n(n2)CCCC3N2CC[C@@H](C(=O)O)C2)cccc1-c1cccc(Nc2nccc3cc(CN4CC[C@@H](O)C4)cnc23)c1Cl (stereo partly drawn) [Compound 42]
> 8.00

Here are 6 compounds. What values of pIC50 were reported for them?
1. O=C(Nc1cccc(-c2cccc(Nc3nc(C(F)F)nc4cccnc34)c2Cl)c1Cl)c1cc2n(n1)CCC[C@@H]2N1CCC(O)CC1 (stereo in doubt) [Compound 306]
2. CN[C@@H]1CCCn2nc(C(=O)Nc3cccc(-c4cccc(Nc5nccc6cc(CN7CC[C@@H](O)C7)cnc56)c4C)c3C)cc21 [Compound 347]
3. Cn1c(C(=O)Nc2cccc(-c3cccc(NC(=O)c4cc5n(n4)CCCC5NC(C)(C)C(=O)O)c3Cl)c2Cl)nc2c1CCN(CCC13CCC(C(=O)O)(CC1)C3)C2 (stereo not drawn) [Compound 60]
4. Cc1nc(Nc2cccc(-c3cccc(NC(=O)c4cc5n(n4)CCC[C@H]5N4CCC(C(=O)O)CC4)c3Cl)c2Cl)c2ncccc2n1 [Compound 255]
5. O=C(O)CN[C@H]1CCCn2nc(C(=O)Nc3cccc(-c4cccc(NC(=O)c5cc6n(n5)CCC[C@@H]6NCCO)c4Cl)c3Cl)cc21 [Compound 315]
6. COc1cc(-c2cccc(-c3cccc(NC(=O)c4cc5n(n4)CCCC5N4CC[C@@H](O)C4)c3Cl)c2Cl)cc(F)c1CNCCNC(C)=O (stereo partly drawn) [Compound 121]

Out:
["7.00 to 8.00", "> 8.00", "> 8.00", "7.00 to 8.00", "> 8.00", "> 8.00"]

In: API: value(readout= pIC50, system= PD-1/PD-L1 (Homo sapiens), query= Cc1c(NC(=O)c2cc3n(n2)CCC[C@H]3N2CCC(C(=O)O)CC2)cccc1-c1cccc(Nc2nc(C(F)(F)F)nc3cc(CN4CC[C@@H](O)C4)cnc23)c1C (stereo in doubt) [Compound 343] )
Out: 7.00 to 8.00

---

Exercise: state measured IC50 for each of the compounds provided.
tested target: PD-1/PD-L1 (Homo sapiens)
procedure details: TR-FRET PD-1/PD-L1 binding inhibition at the molecular level (free proteins)
condition notes: Tag1-PD-L1 and Tag2-PD-1 proteins, twelve concentrations from 200 nM, 2 hours at room temperature, read-out: FRET assay (IC50)

O=C1CC[C@@H](CN[C@@H]2CCCn3nc(C(=O)Nc4cccc(-c5cccc(NC(=O)c6ccc(CNCCO)cn6)c5Cl)c4Cl)cc32)N1 [Compound 225]
10 to 100 nM
Cc1c(NC(=O)c2cc3n(n2)CCCC3N2CCC(C(=O)O)CC2)cccc1-c1cccc(Nc2nccc3cc(CN4CC[C@@H](O)C4)cnc23)c1Cl (stereo partly drawn) [Compound 44]
10 to 100 nM
O=C(Nc1cccc(-c2cccc(Nc3nc(C(F)F)nc4cc(CN5CC[C@@H](O)C5)cnc34)c2Cl)c1Cl)c1cc2n(n1)CCCC2O (stereo partly drawn) [Compound 138]
10 to 100 nM
O=C(Nc1cccc(-c2cccc(Nc3nccc4cc(CN5CC[C@@H](O)C5)cnc34)c2Cl)c1Cl)c1cc2n(n1)CCCC2N1CC[C@@H](C(=O)O)C1 (stereo partly drawn) [Compound 228]
10 to 100 nM
O=C(Nc1cccc(-c2cccc(Nc3nc(C(F)(F)F)nc4cccnc34)c2Cl)c1Cl)c1cc2n(n1)CCC[C@@H]2N1CC(C(=O)O)C1 [Compound 277]
10 to 100 nM
O=C(O)CN[C@@H]1CCCn2nc(C(=O)Nc3cccc(-c4cccc(NC(=O)c5ccc(CN6CC[C@@H](O)C6)cn5)c4Cl)c3Cl)cc21 [Compound 223]
10 to 100 nM
O=C(Nc1cccc(-c2cccc(Nc3nc(C(F)F)nc4cccnc34)c2Cl)c1Cl)c1cc2n(n1)CCC[C@@H]2N1CCC(C(=O)O)CC1 [Compound 289]
< 10 nM
COc1cc(-c2cccc(-c3cccc(NC(=O)c4cc5n(n4)CCCC5NCCO)c3Cl)c2Cl)cc(F)c1CN1CC[C@@H](O)C1 (stereo partly drawn) [Compound 122]
< 10 nM
Cc1c(NC(=O)c2ccc(CNCCO)cn2)cccc1-c1cccc(NC(=O)c2cc3n(n2)CCCC3NC(C)(C)C(=O)O)c1C (stereo not drawn) [Compound 80]
< 10 nM
Cc1c(NC(=O)c2ccc(CN3CC[C@@H](O)C3)cn2)cccc1-c1cccc(NC(=O)c2cc3n(n2)CCC[C@H]3N2CCCC[C@@H]2CO)c1C [Compound 309-1]
10 to 100 nM

Here are 8 compounds. What values of IC50 were reported for them?
1. CC(C)c1nc(Nc2cccc(-c3cccc(NC(=O)c4cc5n(n4)CCC[C@@H]5N4CC(C(=O)O)C4)c3Cl)c2Cl)c2ncccc2n1 [Compound 301]
2. Cn1c(C(=O)Nc2cccc(-c3cccc(NC(=O)c4cc5n(n4)CCCC5N4CC[C@@H](C(=O)O)C4)c3Cl)c2Cl)nc2c1CCN(CCC13CCC(C(=O)O)(CC1)C3)C2 (stereo partly drawn) [Compound 57]
3. COc1nc(-c2cccc(-c3cccc(-c4cc5n(n4)CCCC5N4CCC(C(=O)O)CC4)c3C)c2C)cnc1CNC[C@@H]1CCC(=O)N1 (stereo partly drawn) [Compound 167]
4. Cc1c(NC(=O)c2cc3n(n2)CCCC3N2CC[C@@H](O)C2)cccc1-c1cccc(Nc2nccc3cc(CN4CC[C@@H](O)C4)cnc23)c1C (stereo partly drawn) [Compound 13]
5. Cc1c(NC(=O)c2cc3n(n2)CCCC3NC[C@@H]2CCC(=O)N2)cccc1-c1cccc(-c2nc3cc(CN4CC[C@@H](C(=O)O)C4)cc(C#N)c3o2)c1C (stereo partly drawn) [Compound 65]
6. COc1nc(-c2cccc(-c3cccc(NC(=O)c4cc5n(n4)CCCC5O)c3C)c2C)cnc1CNC[C@@H]1CCC(=O)N1 (stereo partly drawn) [Compound 110]
7. Cc1c(NC(=O)c2cc3n(n2)CCCC3N2CC[C@@H](C(=O)O)C2)cccc1-c1cccc(Nc2nc(C(F)F)nc3cc(CN4CC[C@@H](O)C4)cnc23)c1C (stereo partly drawn) [Compound 133]
8. O=C(Nc1cccc(-c2cccc(NC(=O)c3cc4n(n3)CCCC4N3CCC(C(=O)O)CC3)c2Cl)c1Cl)c1ccc(CNCCO)cn1 (stereo not drawn) [Compound 88]

Out:
1: 100 to 1000 nM; 2: < 10 nM; 3: 10 to 100 nM; 4: < 10 nM; 5: < 10 nM; 6: < 10 nM; 7: < 10 nM; 8: < 10 nM

Here are 5 compounds. What values of IC50 were reported for them?
1. COc1nc(-c2cccc(-c3cccc(-c4cc5n(n4)CCCC5N4CC[C@@H](O)C4)c3Cl)c2Cl)cnc1CNC[C@@H]1CCC(=O)N1 (stereo partly drawn) [Compound 170]
2. O=C(Nc1cccc(-c2cccc(Nc3nc(C(F)F)nc4cc(CN5CC(F)(F)C5)cnc34)c2Cl)c1Cl)c1cc2n(n1)CCC[C@H]2N1CCC(O)CC1 [Compound 272]
3. Cc1c(NC(=O)c2ccc(CNCCO)cn2)cccc1-c1cccc(NC(=O)c2cc3n(n2)CCCC3NCC2CCC(=O)N2)c1C (stereo not drawn) [Compound 75]
4. Cn1c(C(=O)Nc2cccc(-c3cccc(NC(=O)c4cc5n(n4)CCCC5N4CCC(O)CC4)c3Cl)c2Cl)nc2c1CCN(CCC13CCC(C(=O)O)(CC1)C3)C2 (stereo not drawn) [Compound 58]
5. COc1cc(-c2cccc(-c3cccc(NC(=O)c4cc5n(n4)CCCC5NCCO)c3Cl)c2Cl)cc(F)c1CNCCNC(C)=O (stereo not drawn) [Compound 120]

Out:
["10 to 100 nM", "10 to 100 nM", "< 10 nM", "10 to 100 nM", "< 10 nM"]

In: // lookup IC50 for COc1cc(-c2cccc(-c3cccc(NC(=O)c4cc5n(n4)CCCC5NCC(=O)O)c3Cl)c2Cl)cc(F)c1CNC[C@@H]1CCC(=O)N1 (stereo partly drawn) [Compound 188]
Out: < 10 nM
